test system: Proteus mirabilis IXM OM-19; test: MIC against bacteria (Table I), strain (3); format: cell-based; details: IXMOM19; (3) Proteus mirabilis IXM OM-19; read-out: MIC
ENDPOINT LABEL: MIC (µg/mL)
Could you give me the number in µg/mL? Just the number is fine.

{"COMPOUND": "COc1ccncc1C(=O)N[C@@H](C(=O)N[C@@H]1C(=O)N2C(C(=O)O)=C(CSc3nnc(SCC(=O)O)s3)CS[C@H]12)c1ccccc1", "SYSTEM": "Proteus mirabilis IXM OM-19", "RECORDED VALUE": 0.78}
{"COMPOUND": "Cc1nnc(SCC2=C(C(=O)O)N3C(=O)[C@@H](NC(=O)Cn4cnnn4)[C@H]3SC2)s1 [Cephazolin, reference compound]", "SYSTEM": "Proteus mirabilis IXM OM-19", "RECORDED VALUE": 6.25}
{"COMPOUND": "O=C(O)CCCc1nnc(SCC2=C(C(=O)O)N3C(=O)[C@@H](NC(=O)[C@H](NC(=O)c4cnccc4O)c4ccccc4)[C@H]3SC2)s1", "SYSTEM": "Proteus mirabilis IXM OM-19", "RECORDED VALUE": 0.78}
{"COMPOUND": "O=C(O)CSc1nnc(SCC2=C(C(=O)O)N3C(=O)[C@@H](NC(=O)[C@H](NC(=O)c4csccc4=O)c4ccccc4)[C@H]3SC2)s1", "SYSTEM": "Proteus mirabilis IXM OM-19", "RECORDED VALUE": 0.39}

Now consider a different compound.
Input line: Specify reported MIC for the compound shown: O=C(O)CCSc1nnc(SCC2=C(C(=O)O)N3C(=O)[C@@H](NC(=O)[C@H](NC(=O)c4cnccc4O)c4ccccc4)[C@H]3SC2)s1
Output line: 0.78

---

# reported MIC; entries follow
test system: Proteus vulgaris 0X 19US; experiment: MIC against bacteria (Table I), strain (2); type: cell-based; details: 0X19US; (2) Proteus vulgaris 0X 19US; read-out: MIC
Numeric answer only, unit µg/mL assumed.

{"COMPOUND": "O=C(O)CSc1nnc(SCC2=C(C(=O)O)N3C(=O)[C@@H](NC(=O)[C@H](NC(=O)c4csccc4=O)c4ccc(O)cc4)[C@H]3SC2)s1", "MIC / µg/mL": 1.56}
{"COMPOUND": "COc1cc(O)ncc1C(=O)N[C@@H](C(=O)N[C@@H]1C(=O)N2C(C(=O)O)=C(CSc3nnc(SCC(=O)O)s3)CS[C@H]12)c1ccccc1", "MIC / µg/mL": 12.5}

Input line: For Proteus vulgaris 0X 19US, give MIC of the listed compound: Cc1nc(SCC(=O)O)cc(SCC2=C(C(=O)O)N3C(=O)[C@@H](NC(=O)[C@H](NC(=O)c4cnccc4O)c4ccccc4)[C@H]3SC2)n1
Output line: 1.56

Input line: State MIC (Proteus vulgaris 0X 19US) of O=C(O)Cn1nc(SCC2=C(C(=O)O)N3C(=O)[C@@H](NC(=O)[C@H](NC(=O)c4cnccc4O)c4ccccc4)[C@H]3SC2)ccc1=O .
Output line: 1.56

Input line: Report the value of MIC obtained on Proteus vulgaris 0X 19US for O=C(O)CSc1nsc(SCC2=C(C(=O)O)N3C(=O)[C@@H](NC(=O)[C@H](NC(=O)c4cnccc4O)c4ccccc4)[C@H]3SC2)n1 .
Output line: 0.78

---

experiment: Residual antibacterial activity after incubation with 10% liver homogenate (Table 4); type: in vitro ADME, male Sprague-Dowley rat; conditions: rat, 10% liver homogenate
ENDPOINT LABEL: remaining at 0.5 h (%)
Numbers only here, please. The scale is %.

Input line: Give me measured remaining at 0.5 h, please, for this compound: CC(=O)OCC1=C(C(=O)O)N2C(=O)[C@@H](NC(=O)Cc3cccs3)[C@H]2SC1 [Cephalotin, reference compound]
Output line: 12.2

---

Property: remaining at 1.5 h; scope: individual molecules
test: Residual antibacterial activity after incubation with 10% liver homogenate (Table 4); assay type: in vitro ADME, male Sprague-Dowley rat; details: 10% liver homogenate; 10% rat liver homogenate, 90 minute; read-out: Residual activity
Express the reported value numerically, then name its unit.

Take a look at these entries with their results.
{"MOLECULE": "O=C(Cc1cccs1)N[C@@H]1C(=O)N2C(C(=O)[O-])=C(C[n+]3ccccc3)CS[C@H]12 [Cephaloridine, reference compound]", "RECORDED VALUE": "91.1%"}
{"MOLECULE": "O=C(O)CSc1nnc(SCC2=C(C(=O)O)N3C(=O)[C@@H](NC(=O)[C@H](NC(=O)c4cnccc4O)c4ccccc4)[C@H]3SC2)s1 [Example 4]", "RECORDED VALUE": "102%"}
{"MOLECULE": "O=C(O)C1=C(CSc2nnc(SCCS(=O)(=O)O)s2)CS[C@@H]2[C@H](NC(=O)[C@H](NC(=O)c3cnccc3O)c3ccccc3)C(=O)N12 [Example 9]", "RECORDED VALUE": "102%"}

Now for a further molecule.
Input line: Please give measured remaining at 1.5 h of the following entry: O=C(O)CCc1nnc(SCC2=C(C(=O)O)N3C(=O)[C@@H](NC(=O)[C@H](NC(=O)c4cnccc4O)c4ccccc4)[C@H]3SC2)s1 [Example 6]
Output line: 91.3%

---

Catalogue of MIC readings, one per entry.
test system: Salmonella typhi H901 W; assay: MIC against bacteria (Table I), strain (9); assay type: cell-based; settings: Salmonella enterica, TYPHI
Write the value in µg/mL as a bare number.

{"COMPOUND": "O=C(O)CCCc1nnc(SCC2=C(C(=O)O)N3C(=O)[C@@H](NC(=O)[C@H](NC(=O)c4cnccc4O)c4ccccc4)[C@H]3SC2)s1", "MIC (µg/mL)": 1.56}
{"COMPOUND": "O=C(O)CSc1nsc(SCC2=C(C(=O)O)N3C(=O)[C@@H](NC(=O)[C@H](NC(=O)c4cnccc4O)c4ccccc4)[C@H]3SC2)n1", "MIC (µg/mL)": 1.56}
{"COMPOUND": "Cc1cc(O)c(C(=O)N[C@@H](C(=O)N[C@@H]2C(=O)N3C(C(=O)O)=C(CSc4nnc(CC(=O)O)s4)CS[C@H]23)c2ccccc2)cn1", "MIC (µg/mL)": 1.56}
{"COMPOUND": "Cc1cc(O)c(C(=O)N[C@@H](C(=O)N[C@@H]2C(=O)N3C(C(=O)O)=C(CSc4nnc(CCCC(=O)O)s4)CS[C@H]23)c2ccccc2)cn1", "MIC (µg/mL)": 1.56}
{"COMPOUND": "Cc1nc(SCC2=C(C(=O)O)N3C(=O)[C@@H](NC(=O)[C@H](NC(=O)c4cnccc4O)c4ccccc4)[C@H]3SC2)sc1CC(=O)O", "MIC (µg/mL)": 1.56}

Input line: Please look at this compound and report its MIC: O=C(O)Cc1nnc(SCC2=C(C(=O)O)N3C(=O)[C@@H](NC(=O)[C@H](NC(=O)c4cnccc4O)c4ccccc4)[C@H]3SC2)s1
Output line: 0.39

Input line: Supply MIC value. Item: Cc1nc(SCC2=C(C(=O)O)N3C(=O)[C@@H](NC(=O)[C@H](NC(=O)c4cnccc4O)c4ccccc4)[C@H]3SC2)sc1SCC(=O)O
Output line: 1.56

Input line: Identify measured MIC corresponding to O=C(O)CSc1nnc(SCC2=C(C(=O)O)N3C(=O)[C@@H](NC(=O)[C@H](NC(=O)c4cnccc4O)c4ccc(O)cc4)[C@H]3SC2)s1
Output line: 3.13

Input line: Kindly indicate its recorded MIC. Item: O=C(O)Cn1nnnc1SCC1=C(C(=O)O)N2C(=O)[C@@H](NC(=O)[C@H](NC(=O)c3cnccc3O)c3ccccc3)[C@H]2SC1
Output line: 3.13

Input line: Give a short answer stating reported MIC for Cc1cc(O)c(C(=O)N[C@@H](C(=O)N[C@@H]2C(=O)N3C(C(=O)O)=C(CSc4nnc(SCC(=O)O)s4)CS[C@H]23)c2ccccc2)cn1 .
Output line: 1.56

Input line: Give the reported value of MIC for this record: COc1ccncc1C(=O)N[C@@H](C(=O)N[C@@H]1C(=O)N2C(C(=O)O)=C(CSc3nnc(SCC(=O)O)s3)CS[C@H]12)c1ccccc1
Output line: 6.25

Input line: Let me know recorded MIC for COc1cc(C)ncc1C(=O)N[C@@H](C(=O)N[C@@H]1C(=O)N2C(C(=O)O)=C(CSc3nnc(SCC(=O)O)s3)CS[C@H]12)c1ccccc1 , thanks.
Output line: 6.25

---

assay: Residual antibacterial activity after incubation with 90% plasma (Table 4); format: in vitro ADME, male Sprague-Dowley rat; details: 90% plasma; 90% rat plasma, 15 minute
Below, each of the compounds is paired with its reported remaining at 0.25 h value.
Report as a plain number; the unit % is understood.

Known remaining at 0.25 h results, listed for orientation:
{"COMPOUND": "O=C(O)CSc1nnc(SCC2=C(C(=O)O)N3C(=O)[C@@H](NC(=O)[C@H](NC(=O)c4cnccc4O)c4ccccc4)[C@H]3SC2)s1", "RECORDED VALUE": 97}
{"COMPOUND": "O=C(O)C1=C(CSc2nnc(SCCS(=O)(=O)O)s2)CS[C@@H]2[C@H](NC(=O)[C@H](NC(=O)c3cnccc3O)c3ccccc3)C(=O)N12", "RECORDED VALUE": 103}

Input line: Recall and state the measured remaining at 0.25 h for CC(=O)OCC1=C(C(=O)O)N2C(=O)[C@@H](NC(=O)Cc3cccs3)[C@H]2SC1 [Cephalotin, reference compound] .
Output line: 87

Input line: Kindly indicate its recorded remaining at 0.25 h. Item: O=C(Cc1cccs1)N[C@@H]1C(=O)N2C(C(=O)[O-])=C(C[n+]3ccccc3)CS[C@H]12 [Cephaloridine, reference compound]
Output line: 97.2

Input line: In one line, give reported remaining at 0.25 h of the entry O=C(O)CCc1nnc(SCC2=C(C(=O)O)N3C(=O)[C@@H](NC(=O)[C@H](NC(=O)c4cnccc4O)c4ccccc4)[C@H]3SC2)s1 .
Output line: 92
